Collected Relative Binding Score HLA-DR2 values appear next to each entry.
biological target: HLA-DR2 (Homo sapiens, UniProt P01903+P01911); construct: purchased ProImmune; assay: ProImmune REVEAL MHC-peptide binding assay; details: compared to the positive control peptide, time 0
Sequence (P01903 26-254): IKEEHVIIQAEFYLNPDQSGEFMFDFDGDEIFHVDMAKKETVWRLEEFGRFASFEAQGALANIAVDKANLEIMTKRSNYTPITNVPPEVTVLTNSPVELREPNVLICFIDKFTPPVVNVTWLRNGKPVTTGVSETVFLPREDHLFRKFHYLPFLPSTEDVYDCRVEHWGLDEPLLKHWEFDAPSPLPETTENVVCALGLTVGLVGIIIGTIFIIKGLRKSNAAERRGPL
Sequence (P01911 30-227 limits assumed): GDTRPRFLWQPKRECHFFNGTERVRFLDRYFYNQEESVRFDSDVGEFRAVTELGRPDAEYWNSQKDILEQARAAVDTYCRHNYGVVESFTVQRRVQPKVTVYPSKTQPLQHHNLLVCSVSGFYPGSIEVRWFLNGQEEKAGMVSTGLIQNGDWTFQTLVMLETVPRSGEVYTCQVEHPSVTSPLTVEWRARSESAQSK
Give the value as a plain number.

Please review the following examples before continuing.
[[record]]
substance = "BIR-002: class II peptide with known immunogenicity, IMA950 peptide (TLGEFLKLDRERAKN) [reference compound]"
system_tested = "HLA-DR2 (Homo sapiens, UniProt P01903+P01911)"
value = 0.05

[[record]]
substance = "INNYTPDMNREDVDYAIR (listed as Homo sapiens) [SEQ ID NO 76]"
system_tested = "HLA-DR2 (Homo sapiens, UniProt P01903+P01911)"
value = 2.43

[[record]]
substance = "MET-005: class II peptide with known immunogenicity, IMA950 peptide (TFSYVDPVITSISPKYG) [reference compound]"
system_tested = "HLA-DR2 (Homo sapiens, UniProt P01903+P01911)"
value = 0.28


Would you kindly look at the next entry?
Query the reported Relative Binding Score HLA-DR2 for HLA-DR2 (Homo sapiens, UniProt P01903+P01911); item: TNGVIHVVDKLLYPADT (listed as Homo sapiens) [SEQ ID NO 77] 0.68
